Every entry's value here was drawn from patent US20210040232A1.

Readings of koff for the listed binders
Biological target: T1, soluble Macaca fascicularis CTLA-4 expressed with a C-terminal myc-myc-polyhistidine tag (Macaca fascicularis)
T1 construct: soluble protein; also called mf CTLA-4.mmh; mfCTLA4.mmh
T1 chain: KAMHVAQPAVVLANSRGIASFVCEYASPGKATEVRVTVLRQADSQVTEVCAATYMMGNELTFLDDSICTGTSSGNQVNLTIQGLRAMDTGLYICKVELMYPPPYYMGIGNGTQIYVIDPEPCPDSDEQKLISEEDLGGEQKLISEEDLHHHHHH
Test: SPR, mAb capture, 25 C
The reply should contain only the number, in s⁻¹.

Examples with their reported koff follow.
[[record]]
binder = "H1H19274P (antibody, human IgG1, V domains shown) VH: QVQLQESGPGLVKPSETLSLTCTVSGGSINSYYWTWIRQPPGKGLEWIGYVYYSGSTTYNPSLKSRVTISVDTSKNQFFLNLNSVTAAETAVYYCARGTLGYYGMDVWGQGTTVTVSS VL: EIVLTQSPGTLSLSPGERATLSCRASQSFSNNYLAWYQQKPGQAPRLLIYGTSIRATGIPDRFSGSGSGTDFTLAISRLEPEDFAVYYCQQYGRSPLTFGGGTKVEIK"
quantity = "koff"
output_unit = "s⁻¹"
measured_result = 0.000463

[[record]]
binder = "H1H19273P (antibody, human IgG1, V domains shown) VH: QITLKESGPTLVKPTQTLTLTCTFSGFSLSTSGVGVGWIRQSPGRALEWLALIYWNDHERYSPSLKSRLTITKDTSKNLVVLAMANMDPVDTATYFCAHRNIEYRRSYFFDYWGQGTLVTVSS VL: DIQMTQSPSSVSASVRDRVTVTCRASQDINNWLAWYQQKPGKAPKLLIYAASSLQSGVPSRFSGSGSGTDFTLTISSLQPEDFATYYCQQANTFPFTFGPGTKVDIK"
quantity = "koff"
output_unit = "s⁻¹"
measured_result = 0.000346

[[record]]
binder = "H1H19281P (antibody, human IgG1, V domains shown) VH: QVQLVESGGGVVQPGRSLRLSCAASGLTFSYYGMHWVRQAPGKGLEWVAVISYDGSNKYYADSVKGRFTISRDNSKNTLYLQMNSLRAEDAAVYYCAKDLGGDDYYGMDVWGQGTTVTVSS VL: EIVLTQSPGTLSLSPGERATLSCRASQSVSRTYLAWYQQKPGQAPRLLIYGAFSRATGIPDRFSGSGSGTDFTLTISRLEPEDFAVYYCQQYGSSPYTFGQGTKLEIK"
quantity = "koff"
output_unit = "s⁻¹"
measured_result = 0.00101

[[record]]
binder = "H1H19269P (antibody, human IgG1, V domains shown) VH: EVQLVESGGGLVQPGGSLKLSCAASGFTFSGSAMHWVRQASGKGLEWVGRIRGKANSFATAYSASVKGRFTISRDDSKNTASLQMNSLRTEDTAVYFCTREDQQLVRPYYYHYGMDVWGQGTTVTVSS VL: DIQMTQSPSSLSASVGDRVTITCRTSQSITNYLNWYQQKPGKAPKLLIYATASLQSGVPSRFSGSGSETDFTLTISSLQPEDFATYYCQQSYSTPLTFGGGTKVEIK"
quantity = "koff"
output_unit = "s⁻¹"
measured_result = 0.000435


Next item in the queue.
Query: For the binder shown here, H1H19313P (antibody, human IgG1, V domains shown) VH: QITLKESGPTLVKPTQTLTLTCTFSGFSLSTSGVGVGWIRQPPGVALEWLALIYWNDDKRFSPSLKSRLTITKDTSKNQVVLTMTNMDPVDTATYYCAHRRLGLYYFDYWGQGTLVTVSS VL: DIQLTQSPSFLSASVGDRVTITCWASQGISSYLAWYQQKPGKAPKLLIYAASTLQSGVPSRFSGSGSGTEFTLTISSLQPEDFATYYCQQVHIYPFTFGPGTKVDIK , give the reported koff.
Reply: 0.000464
